- target_of_assay: Neutrophil elastase (Homo sapiens, UniProt P08246)
- Sequence (P08246 whole entry): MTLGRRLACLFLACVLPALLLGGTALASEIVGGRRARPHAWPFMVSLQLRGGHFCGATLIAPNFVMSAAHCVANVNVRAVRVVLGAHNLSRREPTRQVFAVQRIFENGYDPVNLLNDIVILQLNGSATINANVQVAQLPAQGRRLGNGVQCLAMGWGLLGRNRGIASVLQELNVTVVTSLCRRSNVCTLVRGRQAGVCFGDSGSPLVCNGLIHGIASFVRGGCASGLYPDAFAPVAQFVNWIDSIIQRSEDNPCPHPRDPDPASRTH
- assay_details: Inhibition of human leukocyte elastase
Could you please report measured IC50 for the items listed next?

// query IC50 value for entry `Clc1ccc2nc(-c3c[nH]c4ccccc34)cc(-c3ccccc3)c2c1`
4.22 µM

// query IC50 value for entry `Clc1ccc2nc(-c3cccc(Br)c3)cc(-c3ccccc3)c2c1`
≥ 28 µM

// query IC50 value for entry `Clc1ccc2nc(-c3ccccc3)cc(-c3ccccc3)c2c1`
≥ 28 µM

// query IC50 value for entry `COc1ccc(-c2cc(-c3ccccc3)c3cc(Cl)ccc3n2)cc1`
≥ 28 µM

// query IC50 value for entry `O=[N+]([O-])c1ccc2nc(-c3ccc(O)cc3)cc(-c3ccccc3)c2c1`
2.91 µM

// query IC50 value for entry `O=[N+]([O-])c1ccc2nc(-c3c[nH]c4ccccc34)cc(-c3ccccc3)c2c1`
0.63 µM

// query IC50 value for entry `Cc1ccc(-c2cc(-c3ccccc3)c3cc(Cl)ccc3n2)cc1`
≥ 28 µM

// query IC50 value for entry `Cc1ccc(-c2cc(-c3ccccc3)c3cc([N+](=O)[O-])ccc3n2)cc1`
≥ 28 µM

// query IC50 value for entry `O=[N+]([O-])c1ccc2nc(-c3cccc(Br)c3)cc(-c3ccccc3)c2c1`
≥ 28 µM
